# protein stability index per entry
tested on: Saccharomyces cerevisiae; assay: protein stability index of tFT-peptide fusion (C-terminal peptide) (PSI (0-1 scale)); higher = more stable (slower turnover); conditions: genetic background: wild type; temperature: 30 C
Keep the answer to the number alone.

These recorded examples may help you get a feel for the data.
residues=YVGILCTGILTV target_system="Saccharomyces cerevisiae" quantitative_result=0.438
residues=SFSIPILLLAFP target_system="Saccharomyces cerevisiae" quantitative_result=0.425

**Q:** Looking for the measured protein stability index of ALPPPPPPSPLL , can you help?
**A:** 0.642

**Q:** Looking for the measured protein stability index of KTNKKTIVKSQT , can you help?
**A:** 0.674

**Q:** Looking for the measured protein stability index of RHIDSRDPTDSP , can you help?
**A:** 0.651

**Q:** Looking for the measured protein stability index of VHWRDARFLRGM , can you help?
**A:** 0.658

**Q:** Looking for the measured protein stability index of GVARALFLWKAV , can you help?
**A:** 0.379

**Q:** Looking for the measured protein stability index of TRCSIPSSLSLM , can you help?
**A:** 0.677

* * *

system: Saccharomyces cerevisiae; assay: protein stability index of tFT-peptide fusion (C-terminal peptide) (PSI (0-1 scale)); higher = more stable (slower turnover); settings: genetic background: wild type; temperature: 37 C
Classification field: MET = protein stability index at or over 0.5; NOT MET = protein stability index under 0.5.

Illustrative cases are given below, each with its answer.
residues=AIDLCIAVVGMV category_label="NOT MET"
residues=LQSYIFSVRGIS category_label=MET
residues=LVFPPVPSLVLC category_label="NOT MET"
residues=GWCLLRVLVLVW category_label="NOT MET"
residues=FFCCVLFSIVVY category_label="NOT MET"

**Q:** Item PPTHDSPVWSPS with protein stability index of 0.5 or above?
**A:** MET

**Q:** Item IFLCRNGAVFIC with protein stability index of 0.5 or above?
**A:** NOT MET

**Q:** Item RLRCRVLQWVWG with protein stability index of 0.5 or above?
**A:** MET

**Q:** Item CVMWFLLSAYYL with protein stability index of 0.5 or above?
**A:** NOT MET

**Q:** Item RWAAAVPLLVVG with protein stability index of 0.5 or above?
**A:** NOT MET

**Q:** Item LVLSVWFFNCTS with protein stability index of 0.5 or above?
**A:** MET

**Q:** Item SFSFCCLLASFV with protein stability index of 0.5 or above?
**A:** MET

**Q:** Item GYRRCCHFLFTL with protein stability index of 0.5 or above?
**A:** MET

**Q:** Item LLPFSLLDLLLC with protein stability index of 0.5 or above?
**A:** MET

**Q:** Item DRTRLFLLLIIA with protein stability index of 0.5 or above?
**A:** NOT MET

**Q:** Item VFVFLFVFLFLL with protein stability index of 0.5 or above?
**A:** NOT MET

* * *

tested on: Saccharomyces cerevisiae; assay: protein stability index of tFT-peptide fusion (C-terminal peptide) (PSI (0-1 scale)); higher = more stable (slower turnover); settings: genetic background: cdc53-1; temperature: 37 C
value.type: protein stability index
Keep the answer to the number alone.

**Q:** Looking for the measured protein stability index of VSCFIVSFWVFL , can you help?
**A:** 0.461

**Q:** Looking for the measured protein stability index of VVVYWGSLKRVC , can you help?
**A:** 0.669

**Q:** Looking for the measured protein stability index of ILAVMFEIYAIL , can you help?
**A:** 0.512

**Q:** Looking for the measured protein stability index of CVIVCVLVWGRA , can you help?
**A:** 0.269

**Q:** Looking for the measured protein stability index of FLCFFGGCFFLV , can you help?
**A:** 0.646

**Q:** Looking for the measured protein stability index of VRLLLIFRLLVI , can you help?
**A:** 0.539

**Q:** Looking for the measured protein stability index of FPSLLFALFLFI , can you help?
**A:** 0.502

**Q:** Looking for the measured protein stability index of TIYGYEVTRKIG , can you help?
**A:** 0.78

**Q:** Looking for the measured protein stability index of SSFDFVVSLCIY , can you help?
**A:** 0.526

**Q:** Looking for the measured protein stability index of CTLVFLFFDLCS , can you help?
**A:** 0.533

**Q:** Looking for the measured protein stability index of PPPPPPPSSSSL , can you help?
**A:** 0.735

**Q:** Looking for the measured protein stability index of LLLRSSRLRVLS , can you help?
**A:** 0.619

**Q:** Looking for the measured protein stability index of DFWCIIVIFLFR , can you help?
**A:** 0.348

**Q:** Looking for the measured protein stability index of LRVGVRSWGGKW , can you help?
**A:** 0.512

**Q:** Looking for the measured protein stability index of VIGFGEVWIRCV , can you help?
**A:** 0.57

**Q:** Looking for the measured protein stability index of LGCRFCFVGVVG , can you help?
**A:** 0.632

**Q:** Looking for the measured protein stability index of SGRGFSFVLCTV , can you help?
**A:** 0.599

**Q:** Looking for the measured protein stability index of AGCFFVVLCGFF , can you help?
**A:** 0.503

**Q:** Looking for the measured protein stability index of VAVYVGVGVSLG , can you help?
**A:** 0.523

* * *

tested on: Saccharomyces cerevisiae; assay: protein stability index of tFT-peptide fusion (C-terminal peptide) (PSI (0-1 scale)); higher = more stable (slower turnover); conditions: genetic background: das1 deletion; temperature: 30 C
value.type: protein stability index
Keep the answer to the number alone.

These recorded examples may help you get a feel for the data.
residues="KIGKGKLYFAIV [YDR220C C-terminal 12 aa]" value_type="protein stability index" quantitative_result=0.666
residues="HGRESANGISKQ [YLR374C C-terminal 12 aa]" value_type="protein stability index" quantitative_result=0.679

**Q:** Looking for the measured protein stability index of SDVAKQLAALGY [RPL16A C-terminal 12 aa] , can you help?
**A:** 0.698

* * *

test system: Saccharomyces cerevisiae; assay: protein stability index of tFT-peptide fusion (C-terminal peptide) (PSI (0-1 scale)); higher = more stable (slower turnover); conditions: genetic background: doa10 deletion; temperature: 30 C
Classification field: label 1 = protein stability index at or over 0.3; label 0 = protein stability index under 0.3.

Illustrative cases are given below, each with its answer.
residues=LVFRVSLVEVVL category_label="label 0"
residues=WLFRCFLFVVGG category_label="label 1"
residues=LFVGLVSFRIGA category_label="label 1"
residues=FIRLFLVSFFIS category_label="label 0"
residues=LSRSAGVGVWVG category_label="label 0"
residues=CLFFFFFHLPIF category_label="label 1"
residues=VFFVLIFLLFLF category_label="label 1"
residues=LWRFFFVAFVGI category_label="label 1"
residues=KKKEILVYIIQE category_label="label 1"
residues=LQSYIFSVRGIS category_label="label 1"

**Q:** Item LCSVVIFCLVWG with protein stability index of 0.3 or above?
**A:** label 0

**Q:** Item SGLVHVLILGAC with protein stability index of 0.3 or above?
**A:** label 1

**Q:** Item FFGRWWWSFLLA with protein stability index of 0.3 or above?
**A:** label 0

* * *

tested on: Saccharomyces cerevisiae; assay: protein stability index of tFT-peptide fusion (C-terminal peptide) (PSI (0-1 scale)); higher = more stable (slower turnover); conditions: genetic background: wild type; temperature: 30 C
value.type: protein stability index
Keep the answer to the number alone.

These recorded examples may help you get a feel for the data.
residues=VFLRGGVLPLRR value_type="protein stability index" quantitative_result=0.691
residues=KLQKINKIKNEI value_type="protein stability index" quantitative_result=0.685
residues=PRPPYTPSPPHQ value_type="protein stability index" quantitative_result=0.774
residues=AHQGSENRNMSV value_type="protein stability index" quantitative_result=0.688
residues=LKPLRTWLSGSA value_type="protein stability index" quantitative_result=0.719

**Q:** Looking for the measured protein stability index of LRYARAPFPAPP , can you help?
**A:** 0.699

**Q:** Looking for the measured protein stability index of PRPRSPLSPLAL , can you help?
**A:** 0.676

**Q:** Looking for the measured protein stability index of GGTEGSGWSGGG , can you help?
**A:** 0.638

**Q:** Looking for the measured protein stability index of LGFLSSLLCRSL , can you help?
**A:** 0.779

**Q:** Looking for the measured protein stability index of LGVGGGGRGVRG , can you help?
**A:** 0.728

**Q:** Looking for the measured protein stability index of CCRANWDFPIPS , can you help?
**A:** 0.707

**Q:** Looking for the measured protein stability index of PPRSPPLPPGLP , can you help?
**A:** 0.558

The measured values listed here are drawn from the supplement of paper PMC10724198.
